Target: human neutrophil elastase (HNE) (Homo sapiens, UniProt P08246)
Sequence (P08246 30-267): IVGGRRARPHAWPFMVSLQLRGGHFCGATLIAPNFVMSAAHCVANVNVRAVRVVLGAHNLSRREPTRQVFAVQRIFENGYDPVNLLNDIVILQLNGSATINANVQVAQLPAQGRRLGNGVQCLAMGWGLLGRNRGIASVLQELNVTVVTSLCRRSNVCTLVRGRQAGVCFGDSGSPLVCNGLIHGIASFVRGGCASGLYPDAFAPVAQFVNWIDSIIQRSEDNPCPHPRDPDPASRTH
Assay: HNE Ki of CE compounds, tested as described in WO 96/16080
Assay type: biochemical
Settings: read-out: HNE Ki
pKi: −log10 of the molar value.
Value type: pKi

COc1cc(Cc2nc(C(=O)[C@@H](NC(=O)[C@@H]3CCCN3C(=O)[C@@H](NC(=O)OCc3ccccc3)C(C)C)C(C)C)no2)cc(OC)c1; 9.39
CC(C)[C@H](NC(=O)[C@@H]1CCCN1C(=O)[C@@H](NC(=O)OCc1ccccc1)C(C)C)C(=O)c1noc(CC2CCCCC2)n1; 8.36
Cc1cccc(Cc2nnc(C(=O)C(NC(=O)CN3C(=O)CSC3c3ccccc3)C(C)C)o2)c1 (stereo not shown); 7.55
CC(C)[C@H](NC(=O)CN1C(=O)NC(c2ccncc2)(N2C(=O)CCC2=O)C1=O)C(=O)c1noc(Cc2cccc(C(F)(F)F)c2)n1 (stereo partly shown); 7.44

I. Cc1cccc(Cc2nnc(C(=O)[C@@H](NC(=O)CN3C(=O)NC(C)(C)C3=O)C(C)C)o2)c1
II. Cc1cccc(Cc2nnc(C(=O)[C@@H](NC(=O)CN3C(=O)N[C@H](Cc4ccccc4)C3=O)C(C)C)o2)c1
When the recorded pKi values are compared, which is smaller: that of I or that of II ? Mark your selection by writing its label.
I
(I: 7.37, II: 8.06)
